The following compounds are listed with their measured relative viability values.
- Test system: NCI-H2009
- MEASUREMENT_PROTOCOL: relative viability (nuclei count vs DMSO), 5 days (fraction); higher = more cells survive
- DETAILS: first compound 1.265 µM
MEASURE_NAME: relative viability

compound="Clc1ccc(Nc2nnc(Cc3ccncc3)c3ccccc23)cc1 [Vatalanib] + CCNC(=O)c1noc(-c2cc(C(C)C)c(O)cc2O)c1-c1ccc(CN2CCOCC2)cc1 [Luminespib] (partner 0.01 µM)" experimental_target=NCI-H2009 measure_name="relative viability" value=0.962
compound="Clc1ccc(Nc2nnc(Cc3ccncc3)c3ccccc23)cc1 [Vatalanib] + CC(=O)c1c(C)c2cnc(Nc3ccc(N4CCNCC4)cn3)nc2n(C2CCCC2)c1=O [Palbociclib] (partner 0.5 µM)" experimental_target=NCI-H2009 measure_name="relative viability" value=0.24
compound="Clc1ccc(Nc2nnc(Cc3ccncc3)c3ccccc23)cc1 [Vatalanib] + CS(=O)(=O)N1CCN(Cc2cc3nc(-c4cccc5[nH]ncc45)nc(N4CCOCC4)c3s2)CC1 [Pictilisib] (partner 1 µM)" experimental_target=NCI-H2009 measure_name="relative viability" value=0.798
compound="Clc1ccc(Nc2nnc(Cc3ccncc3)c3ccccc23)cc1 [Vatalanib] + N=C(N)NC(=N)NCCc1ccccc1 [Phenformin] (partner 250 µM)" experimental_target=NCI-H2009 measure_name="relative viability" value=0.406
compound="Clc1ccc(Nc2nnc(Cc3ccncc3)c3ccccc23)cc1 [Vatalanib] + Cc1nc(Nc2ncc(C(=O)Nc3c(C)cccc3Cl)s2)cc(N2CCN(CCO)CC2)n1 [Dasatinib] (partner 0.075 µM)" experimental_target=NCI-H2009 measure_name="relative viability" value=0.303
compound="COc1cc(N2CCC(C(N)=O)CC2)ccc1Nc1nc(N)c(Cl)c(Nc2ccccc2S(=O)(=O)C(C)C)n1 [HG-5-88-01] + CC(C)C[C@H](NC(=O)[C@H](Cc1ccccc1)NC(=O)c1cnccn1)B(O)O [Bortezomib] (partner 0.002 µM)" experimental_target=NCI-H2009 measure_name="relative viability" value=0.986
compound="COc1cc(N2CCC(C(N)=O)CC2)ccc1Nc1nc(N)c(Cl)c(Nc2ccccc2S(=O)(=O)C(C)C)n1 [HG-5-88-01] + CS(=O)(=O)N1CCN(Cc2cc3nc(-c4cccc5[nH]ncc45)nc(N4CCOCC4)c3s2)CC1 [Pictilisib] (partner 1 µM)" experimental_target=NCI-H2009 measure_name="relative viability" value=0.793
compound="Clc1ccc(Nc2nnc(Cc3ccncc3)c3ccccc23)cc1 [Vatalanib] + Nc1nc2[nH]cc(CCc3ccc(C(=O)N[C@@H](CCC(=O)O)C(=O)O)cc3)c2c(=O)[nH]1 [Pemetrexed] (partner 0.2 µM)" experimental_target=NCI-H2009 measure_name="relative viability" value=1.01
compound="COc1cc(N2CCC(C(N)=O)CC2)ccc1Nc1nc(N)c(Cl)c(Nc2ccccc2S(=O)(=O)C(C)C)n1 [HG-5-88-01] + C[C@]1(O)C[C@@H](c2nc(-c3ccc4ccc(-c5ccccc5)nc4c3)c3c(N)nccn32)C1 [Linsitinib] (partner 1 µM)" experimental_target=NCI-H2009 measure_name="relative viability" value=1.12

* * *

- System: NCI-H2023
- MEASUREMENT_PROTOCOL: relative viability (nuclei count vs DMSO), 5 days (fraction); higher = more cells survive
- DETAILS: first compound 4 µM
MEASURE_NAME: relative viability

compound="Clc1ccc(Nc2nnc(Cc3ccncc3)c3ccccc23)cc1 [Vatalanib] + CC(=O)c1c(C)c2cnc(Nc3ccc(N4CCNCC4)cn3)nc2n(C2CCCC2)c1=O [Palbociclib] (partner 0.5 µM)" experimental_target=NCI-H2023 value=0.366
compound="Clc1ccc(Nc2nnc(Cc3ccncc3)c3ccccc23)cc1 [Vatalanib] + Nc1ncn([C@H]2C[C@H](O)[C@@H](CO)O2)c(=O)n1 [Decitabine] (partner 2 µM)" experimental_target=NCI-H2023 value=0.219
compound="C[C@@H]1CN(CC(=O)Nc2ccc3c(c2)Cc2cccc(-c4cc(=O)cc(N5CCOCC5)o4)c2S3)C[C@H](C)O1 + N=C(N)NC(=N)NCCc1ccccc1 [Phenformin] (partner 250 µM)" experimental_target=NCI-H2023 value=0.344
compound="COc1cc(N2CCC(C(N)=O)CC2)ccc1Nc1nc(N)c(Cl)c(Nc2ccccc2S(=O)(=O)C(C)C)n1 [HG-5-88-01] + COc1cc2c(Oc3ccc(NC(=O)C4(C(=O)Nc5ccc(F)cc5)CC4)cc3F)ccnc2cc1OCCCN1CCOCC1 [Foretinib] (partner 0.25 µM)" experimental_target=NCI-H2023 value=0.507
compound="C[C@@H]1CN(CC(=O)Nc2ccc3c(c2)Cc2cccc(-c4cc(=O)cc(N5CCOCC5)o4)c2S3)C[C@H](C)O1 + CS(=O)(=O)CCNCc1ccc(-c2ccc3ncnc(Nc4ccc(OCc5cccc(F)c5)c(Cl)c4)c3c2)o1 [Lapatinib] (partner 2 µM)" experimental_target=NCI-H2023 value=0.719

Data credit: the supplement of paper PMC10307832
